Each recorded value in this set is attributed to ChEMBL document CHEMBL1136903.

Target Of Assay: Niemann-Pick C1-like 1 protein (Macaca mulatta, UniProt A0MJA5)
Sequence (A0MJA5 whole entry): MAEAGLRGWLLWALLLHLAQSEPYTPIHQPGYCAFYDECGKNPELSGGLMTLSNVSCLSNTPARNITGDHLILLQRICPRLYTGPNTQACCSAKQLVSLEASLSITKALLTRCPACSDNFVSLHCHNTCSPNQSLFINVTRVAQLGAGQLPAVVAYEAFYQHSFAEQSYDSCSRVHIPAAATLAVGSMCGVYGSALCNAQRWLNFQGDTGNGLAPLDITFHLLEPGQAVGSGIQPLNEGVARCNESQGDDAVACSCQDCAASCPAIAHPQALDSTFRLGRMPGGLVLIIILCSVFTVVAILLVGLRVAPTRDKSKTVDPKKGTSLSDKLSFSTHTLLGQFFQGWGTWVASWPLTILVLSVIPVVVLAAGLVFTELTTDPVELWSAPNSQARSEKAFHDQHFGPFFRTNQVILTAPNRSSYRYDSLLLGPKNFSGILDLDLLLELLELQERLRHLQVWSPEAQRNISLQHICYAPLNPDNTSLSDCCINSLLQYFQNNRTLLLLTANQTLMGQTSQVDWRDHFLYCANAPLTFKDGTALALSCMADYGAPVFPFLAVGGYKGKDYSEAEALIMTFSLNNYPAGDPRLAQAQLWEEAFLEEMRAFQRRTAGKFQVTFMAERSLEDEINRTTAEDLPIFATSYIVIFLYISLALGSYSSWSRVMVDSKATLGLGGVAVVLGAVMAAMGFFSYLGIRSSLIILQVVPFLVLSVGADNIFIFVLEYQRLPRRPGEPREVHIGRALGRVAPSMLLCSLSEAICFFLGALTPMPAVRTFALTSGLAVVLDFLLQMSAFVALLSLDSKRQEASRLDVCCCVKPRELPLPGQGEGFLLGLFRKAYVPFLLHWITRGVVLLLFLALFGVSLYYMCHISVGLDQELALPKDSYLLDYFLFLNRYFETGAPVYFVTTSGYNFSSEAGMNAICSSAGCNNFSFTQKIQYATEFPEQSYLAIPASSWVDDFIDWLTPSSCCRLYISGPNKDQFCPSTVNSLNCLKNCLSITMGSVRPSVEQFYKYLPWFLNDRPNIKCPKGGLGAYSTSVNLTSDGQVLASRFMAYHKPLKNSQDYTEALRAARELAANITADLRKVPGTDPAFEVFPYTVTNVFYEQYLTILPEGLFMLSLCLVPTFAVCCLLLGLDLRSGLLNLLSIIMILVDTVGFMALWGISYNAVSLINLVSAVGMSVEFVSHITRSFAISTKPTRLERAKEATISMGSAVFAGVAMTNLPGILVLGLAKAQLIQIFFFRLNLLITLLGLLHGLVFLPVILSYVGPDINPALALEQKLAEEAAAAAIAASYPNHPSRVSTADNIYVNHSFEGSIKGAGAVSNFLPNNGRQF
Measure Name: IC50 (µM)

[a] O=C([C@@H]1C[C@@H](c2ccccc2)CN1C(=O)c1ccccc1)N1CCC2(C=Cc3ccccc32)CC1
[b] CS(=O)(=O)NCC#CN1C(=O)[C@H](CC[C@H](O)c2ccc(F)cc2)[C@H]1c1ccc(O[C@@H]2O[C@H](C(=O)O)[C@@H](O)[C@H](O)[C@H]2O)cc1
Q: Lab note: check whether a or b has the lower measured IC50. State the label of the item chosen.
A: b
(b: 0.02 µM, a: 146 µM)

* * *

Experiment: Displacement of [35S](2S,3S,4S,5R,6S)-6-(4-((2S,3R)-3-((S)-3-(4-fluorophenyl)-3-hydroxypropyl)-1-(4-(3-(methylsulfonamido)prop-1-ynyl)phenyl)-4-oxoazetidin-2-yl)phenoxy)-3,4,5-trihydroxytetrahydro-2H-pyran-2-carboxylic acid from NPC1L1 in hamster enterocyte brush border membrane
Design: species or system Cricetinae
pIC50: −log10 of the molar value.
Measure Name: pIC50

Q: Fill in pIC50 for record "CC(C)(C)c1ccc(C(=O)N2CCC3(CC2)C(=O)N(CC(=O)N2CCCCC2)CN3c2ccccc2)cc1"
A: 4.39

[I] CS(=O)(=O)NCC#CN1C(=O)[C@H](CC[C@H](O)c2ccc(F)cc2)[C@H]1c1ccc(O[C@@H]2O[C@H](C(=O)O)[C@@H](O)[C@H](O)[C@H]2O)cc1
[II] O=C([C@@H]1C[C@@H](c2ccccc2)CN1C(=O)c1ccccc1)N1CCC2(C=Cc3ccccc32)CC1
[III] O=C(O)[C@H]1O[C@@H](Oc2ccc([C@@H]3[C@@H](CC[C@H](O)c4ccc(F)cc4)C(=O)N3c3ccc(F)cc3)cc2)[C@H](O)[C@@H](O)[C@@H]1O
Q: List from greatest to least pIC50. // respond by listing labels in the order requested
A: I, III, II
(I: 7.66, III: 6.19, II: 4.21)

* * *

Target Of Assay: NPC1-like intracellular cholesterol transporter 1 (Homo sapiens)
Sequence (Q9UHC9 whole entry): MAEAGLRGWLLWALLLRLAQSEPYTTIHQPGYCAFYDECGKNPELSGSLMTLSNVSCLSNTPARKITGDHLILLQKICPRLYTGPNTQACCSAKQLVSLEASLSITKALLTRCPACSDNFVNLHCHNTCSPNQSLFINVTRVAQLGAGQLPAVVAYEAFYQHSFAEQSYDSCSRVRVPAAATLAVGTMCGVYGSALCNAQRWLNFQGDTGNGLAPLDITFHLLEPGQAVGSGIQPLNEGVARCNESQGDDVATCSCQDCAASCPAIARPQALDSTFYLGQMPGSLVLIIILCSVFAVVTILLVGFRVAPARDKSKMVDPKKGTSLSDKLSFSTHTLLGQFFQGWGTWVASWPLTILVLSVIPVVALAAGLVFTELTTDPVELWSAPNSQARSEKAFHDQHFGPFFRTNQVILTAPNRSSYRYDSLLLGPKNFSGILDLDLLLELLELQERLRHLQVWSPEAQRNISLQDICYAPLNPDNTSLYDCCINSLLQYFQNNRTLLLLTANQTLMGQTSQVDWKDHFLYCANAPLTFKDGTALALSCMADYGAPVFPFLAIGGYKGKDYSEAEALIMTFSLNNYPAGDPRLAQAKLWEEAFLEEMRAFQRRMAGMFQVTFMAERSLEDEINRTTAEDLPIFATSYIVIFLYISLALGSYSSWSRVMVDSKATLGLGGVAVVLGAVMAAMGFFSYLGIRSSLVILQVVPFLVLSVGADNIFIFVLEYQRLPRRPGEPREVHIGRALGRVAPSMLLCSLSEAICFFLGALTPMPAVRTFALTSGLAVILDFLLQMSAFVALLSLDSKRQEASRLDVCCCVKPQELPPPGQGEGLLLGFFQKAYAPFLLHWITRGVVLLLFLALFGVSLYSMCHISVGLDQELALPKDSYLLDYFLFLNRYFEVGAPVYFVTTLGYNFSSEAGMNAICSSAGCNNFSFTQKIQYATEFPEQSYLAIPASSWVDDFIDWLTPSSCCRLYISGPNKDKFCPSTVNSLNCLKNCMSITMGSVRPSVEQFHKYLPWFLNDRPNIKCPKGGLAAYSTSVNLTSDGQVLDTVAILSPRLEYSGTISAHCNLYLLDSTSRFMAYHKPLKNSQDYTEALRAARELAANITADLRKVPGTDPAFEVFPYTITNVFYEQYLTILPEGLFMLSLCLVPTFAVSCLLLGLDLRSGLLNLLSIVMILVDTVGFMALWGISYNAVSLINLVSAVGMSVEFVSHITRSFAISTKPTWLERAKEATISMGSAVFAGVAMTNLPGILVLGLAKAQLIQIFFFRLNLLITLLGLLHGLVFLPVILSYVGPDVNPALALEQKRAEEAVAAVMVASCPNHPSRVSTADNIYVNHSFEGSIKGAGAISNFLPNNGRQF
Experiment: Displacement of [35S](2S,3S,4S,5R,6S)-6-(4-((2S,3R)-3-((S)-3-(4-fluorophenyl)-3-hydroxypropyl)-1-(4-(3-(methylsulfonamido)prop-1-ynyl)phenyl)-4-oxoazetidin-2-yl)phenoxy)-3,4,5-trihydroxytetrahydro-2H-pyran-2-carboxylic acid from NPC1L1 in human enterocyte brush border membrane
Measure Name: IC50 (µM)

[A] O=C(O)[C@H]1O[C@@H](Oc2ccc([C@@H]3[C@@H](CC[C@H](O)c4ccc(F)cc4)C(=O)N3c3ccc(F)cc3)cc2)[C@H](O)[C@@H](O)[C@@H]1O
[B] O=C([C@@H]1C[C@@H](c2ccccc2)CN1C(=O)c1ccccc1)N1CCC2(C=Cc3ccccc32)CC1
Q: Which gives the smaller IC50 number: A or B ? Write down the label attached to your selection.
A: A
(A: 0.3 µM, B: 5.3 µM)

[a] CS(=O)(=O)NCC#CN1C(=O)[C@H](CC[C@H](O)c2ccc(F)cc2)[C@H]1c1ccc(O[C@@H]2O[C@H](C(=O)O)[C@@H](O)[C@H](O)[C@H]2O)cc1
[b] CC(C)(C)c1ccc(C(=O)N2CCC3(CC2)C(=O)N(CC(=O)N2CCCCC2)CN3c2ccccc2)cc1
Q: # argmax over IC50 for candidates a and b State your choice using its label.
A: b
(b: 10 µM, a: 0.02 µM)
